assayed_target: HIV reverse transcriptase (Human immunodeficiency virus type 1 group M subtype B, UniProt P03366)
experiment: Reverse transcriptase scintillation proximity assay (Example 4, Table 2)
Format: biochemical
condition_description: 0.05 h, 10 μM inhibitor; relative to dimethyl sulfoxide = 100%; read-out: % RT activity remaining at 10 μM
With a cut-off of 80%, any remaining activity at 10 µM strictly below it is called true (1); any remaining activity at 10 µM meeting it or above is called false (0).

Record excerpt, results attached:
compound	assigned_class
CCOC(=O)c1cccc(NC(=O)Nc2ccc3cc(S(=O)(=O)O)cc(O)c3c2)c1 [Compound 75]	false (0)
COc1cc(C(=O)O)ccc1N=Nc1c(S(=O)(=O)O)cc2cc(NC(=O)Nc3ccc4c(O)c(N=Nc5ccc(C(=O)O)cc5OC)c(S(=O)(=O)O)cc4c3)ccc2c1O [Compound 54]	true (1)
CCOC(=O)c1ccc(N=Nc2c(S(=O)(=O)O)cc3ccc(NC(=O)Nc4ccc5cc(S(=O)(=O)O)c(N=Nc6ccc(C(=O)OCC)cc6)c(O)c5c4)cc3c2O)cc1 [Compound 84]	true (1)

// switching to the query compound
Please determine if COc1cc(C(=O)O)c(N=Nc2c(S(=O)(=O)O)cc3cc(NC(=O)c4ccc(C(=O)Nc5ccc6c(O)c(N=Nc7c(C(=O)O)cc(OC)c(OC)c7OC)c(S(=O)(=O)O)cc6c5)cc4)ccc3c2O)c(OC)c1OC [Compound 177] is below 80% in terms of remaining activity at 10 µM.
true (1)

Where do these numbers come from? They come from patent US6140368A.
